system: SK-MEL-5; experiment: Cancer cell growth inhibition, SK-MEL-5; format: cell-based, human; conditions: Homo sapiens; SK-MEL-5, Melanoma, 72 h treatment
pIC50: −log10 of the molar value.
OBSERVATION TYPE: pIC50

Lookup: Please look up its pIC50: `COc1ccc(-c2cc(-c3ccsc3)c(C(=O)NCc3ccc(C(=O)NO)cc3)[nH]2)cc1`
Found: 5.42

Lookup: Please look up its pIC50: `COc1ccc(-c2cc(-c3ccoc3)c(C(=O)NCc3ccc(C(=O)NO)cc3)[nH]2)cc1`
Found: 6.59

P = O=C(NO)c1ccc(CNC(=O)c2[nH]c(-c3ccc(O)cc3)cc2-c2ccsc2)cc1
Q = O=C(NO)c1ccc(CNC(=O)c2[nH]c(-c3ccc(O)cc3)cc2-c2ccoc2)cc1
R = O=C(NO)c1ccc(CNC(=O)c2[nH]c(-c3ccoc3)cc2-c2ccc(O)cc2)cc1
Lookup: Ascending sort, pIC50. Put the labels in the requested order and list them out.
Found: R, P, Q
(R: 5.48, P: 6.07, Q: 6.53)
